- System: COLO 205 colon
- ASSAY_SUMMARY: NCI tumour cell line growth inhibition, 48 h
Where a SMILES comes first, the peptide text is derived from it. [ ]: non-standard residue; d: D form. The star is where a group is joined. ξ: configuration not given here. NMeF = CN[C@@H](Cc1ccccc1)C(=O)O; ξNMeV = CNC(C(=O)O)C(C)C; Boc = CC(C)(C)OC(=O)*; OBn = c1ccc(CO*)cc1
READOUT_LABEL: TGI

Some solved entries appear below for comparison.
Clc1ccc(OC2CCO2)cc1Cl (stereo not drawn)    > 100 µM
Clc1ccc(-c2nn3ncccc3c2-c2ccnc(Nc3ccccc3)n2)cc1    > 25 µM
C#CCOC(=O)C(N)CSSCC(N)C(=O)O (stereo not drawn)    > 100 µM
O=C(O)C#CCO    > 100 µM
Cc1ccc(CS(=O)(=O)C/N=c2\sc3ccccc3nc2/C=C(\O)c2ccc(Cl)cc2)cc1    > 10 µM
CCC1CC(=O)N(SCC(N)C(=O)O)C1=O (stereo not drawn)    > 100 µM

Task: Could you share which TGI value was measured for O=C(Nc1ccccc1Br)c1cccc([N+](=O)[O-])c1O ?
Output: > 33.4 µM

Task: Could you share which TGI value was measured for CC(C)C(C(=O)N1CCC[C@@H]1C(=O)OCc1ccccc1)N(C)C(=O)C(C(C)C)N(C)C(=O)[C@H](Cc1ccccc1)N(C)C(=O)[C@H](NC(=O)OC(C)(C)C)C(C)C (stereo partly drawn) (Boc-[dV][NMeF][ξNMeV][ξNMeV][dP]-OBn) ?
Output: > 100 µM

Task: Could you share which TGI value was measured for COc1ccc(-n2c(C)nc3ccc(NC4OCC(O)C(O)C4O)cc3c2=O)cc1 (stereo not drawn) ?
Output: > 100 µM

Task: Could you share which TGI value was measured for CN1C2C=C(c3ccccc3)CC1CC2 (stereo not drawn) ?
Output: > 100 µM

Task: Could you share which TGI value was measured for Cc1ccc2c(c1)[nH]c(=S)n2C=C1C(=O)CC(C)(C)CC1=O ?
Output: > 100 µM

Task: Could you share which TGI value was measured for COC(=O)c1ccc([N+](=O)[O-])c(O)c1 ?
Output: > 100 µM

Task: Could you share which TGI value was measured for Cc1nc2ccccc2c(=O)n1NC(=O)c1ccccc1O ?
Output: > 100 µM

###

- Tested on: RPMI-8226 leukemia
- ASSAY_SUMMARY: NCI tumour cell line growth inhibition, 48 h
# Lookup of reported TGI keyed by entry

Some solved entries appear below for comparison.
O=C1NC(=O)C(C(c2ccc(Cl)cc2)C2C(=O)NC(=O)NC2=O)C(=O)N1    > 100 µM
CCCCN(CCCC)CCCN=c1nc2c(c(N)n1-c1ccccc1)c(=S)n(-c1ccccc1)c(=S)n2-c1ccccc1    0.327 µM
N#Cc1cccc(NC(=O)c2oc3ccccc3c2-c2cnn(-c3ccccc3)c2)c1    > 500 µM
Cc1cc2c(cc1C)[n+](=O)c(C(=O)N1CCN(c3ccc([N+](=O)[O-])cc3)CC1)c(C)n2[O-]    > 100 µM
CC1(C)CCc2cc3c(-c4ccccc4)cc(=O)oc3cc2O1    > 100 µM
C=C1Oc2nc3ccccc3c(=O)n2C1(C)C    > 100 µM
C=C1C(=O)O[C@@H]2C[C@@H]1CC[C@@]1(C)O[C@@H]1CC[C@@]1(C)O[C@@H]1CC[C@@]2(C)O    79.7 µM
Cc1ccc(-n2c(Cn3nnc(-c4cccnc4)n3)nn(C3OC(COC(=O)c4ccccc4)C(OC(=O)c4ccccc4)C3OC(=O)c3ccccc3)c2=S)cc1 (stereo not given)    > 100 µM

Task: Could you share which TGI value was measured for O=C(O)c1cc(=O)[nH]c(=S)[nH]1 ?
Output: > 100 µM

Task: Could you share which TGI value was measured for COc1cccc(C2NC(=S)NC(C)=C2C(=O)Nc2ccc(F)c(Cl)c2)c1 (stereo not given) ?
Output: > 50 µM
